SYSTEM NAME: PRKACA (human)
TEST DESCRIPTION: radiometric filter-binding kinase assay
CONDITION CONTEXT: compound 1.0 µM
Listed here: items and their measured residual activity.
Could you give me the number in %? Just the number is fine.

{"COMPOUND": "NC1(c2ccc(-c3nc4ccn5c(=O)[nH]nc5c4cc3-c3ccccc3)cc2)CCC1", "UNITS LABEL": "%", "residual activity": 91}
{"COMPOUND": "Cc1ccc(-c2ccc3c(ccc4sc5c(c43)NC[C@@H](C)NC5=O)n2)cn1", "UNITS LABEL": "%", "residual activity": 119}
{"COMPOUND": "FC(F)(F)c1ccc(-c2ccc(Oc3cncc4sc(-c5nn[nH]n5)cc34)cc2)cc1", "UNITS LABEL": "%", "residual activity": 101}
{"COMPOUND": "COc1cc(O)c2c(c1)[C@H]1OC1C[C@H](O)[C@H](O)C(=O)/C=C\\C[C@H](C)OC2=O (some centres undefined)", "UNITS LABEL": "%", "residual activity": 100}
{"COMPOUND": "O=C(NOC[C@H](O)CO)c1ccc(F)c(F)c1Nc1ccc(I)cc1Cl", "UNITS LABEL": "%", "residual activity": 87}

Consider `CN1C(=O)[C@@H](Cc2c[nH]c3ccccc23)NC1=S` . Its measured residual activity is 95

Reported residual activity ( `CCNc1nc(Nc2cc(F)c(C(=O)N3CCOCC3)cc2OC)ncc1C(F)(F)F` ) = 96

Recorded residual activity (compound `COc1cc2ncn(-c3cc(OCc4ccccc4S(C)(=O)=O)c(C#N)s3)c2cc1OC` ): 101

Quick note, residual activity for Nc1cccc2c1CN(C1CCC(=O)NC1=O)C2=O (centres undefined) landed at 101

# residual activity (compound: `Oc1ccc(/C=C/c2cc(O)cc(O)c2)cc1` ) is 106

Kindly note the recorded residual activity for `c1ccc2c(-c3cnn4cc(-c5ccc(N6CCNCC6)cc5)cnc34)ccnc2c1` , which is 101

Briefly, residual activity measured for `O=C(O)c1cc(N=Nc2ccc(S(=O)(=O)Nc3ccccn3)cc2)ccc1O` : 111

Memo: `O=C(Nc1nc2cc(C(F)(F)F)cc(NC3CC3)n2n1)c1cccnc1` , reported residual activity: 88

// C=C1C(=O)OC2C1CC/C(C)=C/CCC1(C)OC21 (centres undefined) : residual activity value = 121

---

# Lookup of reported residual activity keyed by entry
SYSTEM NAME: RPS6KA3 KD1 KD2 (human)
TEST DESCRIPTION: radiometric filter-binding kinase assay
CONDITION CONTEXT: compound 10.0 µM
Mention the unit after the number when you answer.

{"COMPOUND": "O=C(NOC[C@H](O)CO)c1ccc(F)c(F)c1Nc1ccc(I)cc1Cl", "SYSTEM NAME": "RPS6KA3 KD1 KD2 (human)", "residual activity": "92%"}
{"COMPOUND": "CC(C)(C#N)c1ccc(N2C(=O)OCc3cnc4ccc(-c5cnc6ccccc6c5)cc4c32)cc1", "SYSTEM NAME": "RPS6KA3 KD1 KD2 (human)", "residual activity": "100%"}
{"COMPOUND": "CC(C)C[C@H](NC(=O)CNC(=O)c1cc(Cl)ccc1Cl)B1OC(=O)CC(CC(=O)O)(C(=O)O)O1 (some centres undefined)", "SYSTEM NAME": "RPS6KA3 KD1 KD2 (human)", "residual activity": "94%"}
{"COMPOUND": "Nc1cccc2c1CN(C1CCC(=O)NC1=O)C2=O (centres undefined)", "SYSTEM NAME": "RPS6KA3 KD1 KD2 (human)", "residual activity": "101%"}

Summary for this compound, `NS(=O)(=O)OC[C@@H]1C[C@@H](n2ccc3c(N[C@H]4CCc5ccccc54)ncnc32)C[C@@H]1O` : residual activity is 96%

residual activity for `Cc1ccc2c(c1)C(=O)[C@@]1(O)CCN(c3ccccc3)C1=N2` is 72%

The reported residual activity of the compound `Cc1ccc(Sc2cnc(Nc3cccc(Br)n3)s2)cc1C(=O)N1CCN(C(=O)CN)CC1` was 18%

The compound listed as `Cc1ccc(-c2ccc3c(ccc4sc5c(c43)NC[C@@H](C)NC5=O)n2)cn1` has a reported residual activity of 50%

# residual activity of `N#Cc1c(O)c2c(-c3ccc(-c4ccccc4O)cc3)csc2[nH]c1=O` = 74%
